test: Intrinsic clearance in mouse liver microsomes at 1 uM preincubated for 5 mins followed by NADPH addition and measured upto 60 mins by LC-MS analysis; assay type: ADME, Microsome; conditions: read-out: CLH
Criterion: microsomal CLint at 1 µM meeting or surpassing 4 µL/min/mg. Met: Met. Not met: Not met.

CC[C@@H]1NC(=O)[C@H]([C@@H]2O[C@@H](Sc3cccc(NCc4ccccc4)c3)C[C@H]2C)N(C)C(=O)[C@H](C(C)C)N(C)C(=O)[C@H](CC(C)C)N(C)C(=O)[C@H](CC(C)C)N(C)C(=O)[C@@H](C)NC(=O)[C@H](C)NC(=O)[C@H](CC(C)C)N(C)C(=O)[C@H](C(C)C)NC(=O)[C@H](CC(C)C)N(C)C(=O)CN(C)C1=O
Not met
CC[C@@H]1NC(=O)[C@H]([C@@H]2O[C@@H](Sc3ccc(Cl)c(OC)c3)C[C@H]2C)N(C)C(=O)[C@H](C(C)C)N(C)C(=O)[C@H](CC(C)C)N(C)C(=O)[C@H](CC(C)C)N(C)C(=O)[C@@H](C)NC(=O)[C@H](C)NC(=O)[C@H](CC(C)C)N(C)C(=O)[C@H](C(C)C)NC(=O)[C@H](CC(C)C)N(C)C(=O)CN(C)C1=O
Not met
CC[C@@H]1NC(=O)[C@H]([C@@H]2O[C@@H](Sc3cc(Cl)cc(OC)c3)C[C@H]2C)N(C)C(=O)[C@H](C(C)C)N(C)C(=O)[C@H](CC(C)C)N(C)C(=O)[C@H](CC(C)C)N(C)C(=O)[C@@H](C)NC(=O)[C@H](C)NC(=O)[C@H](CC(C)C)N(C)C(=O)[C@H](C(C)C)NC(=O)[C@H](CC(C)C)N(C)C(=O)CN(C)C1=O
Not met

q: Does microsomal CLint at 1 µM meet or surpass 4 µL/min/mg for CC[C@@H]1NC(=O)[C@H]([C@@H]2O[C@@H](Sc3cc(OC)cc(OC)c3)C[C@H]2C)N(C)C(=O)[C@H](C(C)C)N(C)C(=O)[C@H](CC(C)C)N(C)C(=O)[C@H](CC(C)C)N(C)C(=O)[C@@H](C)NC(=O)[C@H](C)NC(=O)[C@H](CC(C)C)N(C)C(=O)[C@H](C(C)C)NC(=O)[C@H](CC(C)C)N(C)C(=O)CN(C)C1=O ?
a: Met

q: Does microsomal CLint at 1 µM meet or surpass 4 µL/min/mg for CC[C@@H]1NC(=O)[C@H]([C@@H]2O[C@@H](Sc3cccc(OCc4ccc(F)cc4C)c3)C[C@H]2C)N(C)C(=O)[C@H](C(C)C)N(C)C(=O)[C@H](CC(C)C)N(C)C(=O)[C@H](CC(C)C)N(C)C(=O)[C@@H](C)NC(=O)[C@H](C)NC(=O)[C@H](CC(C)C)N(C)C(=O)[C@H](C(C)C)NC(=O)[C@H](CC(C)C)N(C)C(=O)CN(C)C1=O ?
a: Met
